pIC50: −log10 of the molar value.
// trypsin (Homo sapiens) pIC50 records
Measured Property: pIC50

- Compound: "Cc1cc(CN)ccc1CNC(=O)c1cc(C)n(Cc2csc(-c3ccccc3)n2)c1C [Example 2]"
  Measured Property: "pIC50"
  Measured Result: "< 4.40"
- Compound: "NCc1ccc(CNC(=O)c2cn(Cc3ccccc3)nc2-c2ccccc2)cc1 [Example 84]"
  Measured Property: "pIC50"
  Measured Result: "< 4.40"
- Compound: "NCc1ccc(CNC(=O)c2cn(Cc3csc(-c4ccccc4)n3)nc2C(F)(F)F)cc1 [Example 83]"
  Measured Property: "pIC50"
  Measured Result: 4.58

====

# Tgt: Human KLK1 (Homo sapiens (Human), UniProt P06870)
# Sequence (P06870 25-262): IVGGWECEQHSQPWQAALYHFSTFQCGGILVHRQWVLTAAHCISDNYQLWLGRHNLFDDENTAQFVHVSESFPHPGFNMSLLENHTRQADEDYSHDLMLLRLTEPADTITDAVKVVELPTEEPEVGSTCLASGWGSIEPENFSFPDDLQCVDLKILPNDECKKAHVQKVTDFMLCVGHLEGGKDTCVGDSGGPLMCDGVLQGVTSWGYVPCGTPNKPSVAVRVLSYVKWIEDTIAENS

- Smiles Entry: "Cc1cc(C(=O)NCc2ccc(CN)cc2)c(C)n1Cc1cc(-c2ccccc2)cs1"
  IC50: "> 10 µM"
- Smiles Entry: "Cc1cc(C(=O)NCc2ccc(CN)cc2)c(C)n1Cc1csc(-c2ccoc2)n1"
  IC50: "> 10 µM"
- Smiles Entry: "Cc1cc(C(=O)NCc2ccc(CN)cc2)c(C)n1Cc1ccc(-c2ccncc2)s1"
  IC50: "7.5 µM"
